Assay method text: small-molecule binders of probe aLefty1, primary screen, biochemical, small-molecule microarray, 635/667 nm fluorescence (AID 1153);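 also: score merges spot fluorescence with signal-to-noise ratio from the scanned slide images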
Cond: higher = more signal
Property label: composite z-score

input: Which measured composite z-score value corresponds to `C=CCOC(=O)[C@H]1[C@@H]2C(=O)O[C@@H](c3ccccc3)[C@@H](c3ccccc3)N2[C@@H](c2ccc(OCCOC(=O)[C@H]3C[C@H]4C(=O)NCC(=O)N4[C@H]3c3cccc(OCCO)c3)cc2)[C@]12C(=O)Nc1ccc(I)cc12` ?
output: 1.31

input: Which measured composite z-score value corresponds to `CC(=O)NCCCC[C@@H]1NC(=O)[C@H]2C[C@@H](C(=O)NCCCCCN)[C@@H](c3ccc(O)cc3)N2C1=O` ?
output: 0.302

input: Which measured composite z-score value corresponds to `COC(=O)[C@@]1(Cc2ccccc2)[C@H]2c3cc(C(=O)N(C)C)n(Cc4nc5ccccc5[nH]4)c3C[C@H]2CN1C(=O)c1ccccc1` ?
output: 0.0063

input: Which measured composite z-score value corresponds to `C=C[C@H](C)[C@@H](OC(=O)Nc1ccc(SC)cc1)c1ccc(OCCO)cc1` ?
output: 0.459

input: Which measured composite z-score value corresponds to `Cc1ccc(N2C(=O)c3ccccc3[C@@H](C(=O)NCCN3CCOCC3)[C@@H]2c2ccc(CO)cc2)nc1` ?
output: -0.303

input: Which measured composite z-score value corresponds to `C=C(CCCC)/C(=C/C[C@@H](OC(C)=O)c1cccc(OCCO)c1)c1cc(C(=O)OC)ccc1OC` ?
output: -0.0969

input: Which measured composite z-score value corresponds to `[N-]=[N+]=NCc1ccccc1[C@H]1OC(c2ccc(OCCCO)cc2)=N[C@@]1(Cc1ccccc1N=[N+]=[N-])C(N)=O` ?
output: 0.439

input: Which measured composite z-score value corresponds to O=C1C2C=CC(C(O)C(c3ccccc3)c3ccccc3)N(Nc3ccccc3F)C2C(=O)N1c1ccccc1 (stereo not given) ?
output: 0.235

input: Which measured composite z-score value corresponds to CC1CC/C=C\[C@H]2OC34C=CCN(CCN5CCOCC5)C(=O)[C@H]3N(C(CO)C(C)C)C(=O)[C@@H]4C2C(=O)O1 (stereo not given in full) ?
output: -0.247

input: Which measured composite z-score value corresponds to `COC(=O)[C@@]1(Cc2ccccc2)[C@H]2c3cc(C(=O)N(C)C)n(CCF)c3C[C@H]2CN1C(=O)c1ccccc1` ?
output: 0.873

input: Which measured composite z-score value corresponds to `C[C@@]1([C@@H](NS(=O)(=O)c2cccc3cccnc23)c2ccc(-c3ccccc3)cc2)C[C@H]1C1CCCCC1` ?
output: 1.31

input: Which measured composite z-score value corresponds to C[C@H]1C2[C@H](Cc3ccccc3)NC(=O)[C@]23C(=O)N[C@@H](Cc2ccccc2)C(=O)N2CCC[C@H]2C(=O)NC/C=C/CC/C=C/C3[C@@H]2O[C@]12C (stereo not given in full) ?
output: 0.32

input: Which measured composite z-score value corresponds to `COc1cccc(C)c1NC(=O)O[C@H]1[C@H](OC(=O)Nc2ccc3c(c2)OCO3)[C@H](OC(=O)Nc2ccc3c(c2)OCO3)[C@@H](OC)O[C@@H]1CO` ?
output: 0.855

input: Which measured composite z-score value corresponds to `O=C1OC[C@@H](c2ccccc2)n2cc(/C=C/c3ccccc3)cc21` ?
output: -0.0868

input: Which measured composite z-score value corresponds to `C=C(C(=O)CC[C@@H](OC(=O)c1cccnc1)c1cccc(OCCO)c1)C(C)C` ?
output: -0.309

input: Which measured composite z-score value corresponds to `O=C1O[C@@H](c2ccccc2)[C@@H](c2ccccc2)N2[C@@H](c3ccc(OCCO)cc3)[C@]3(C(=O)Nc4ccc(C#CC5=CCCCC5)cc43)[C@@H](C(=O)Nc3nc4ccccc4s3)[C@H]12` ?
output: -0.0857

input: Which measured composite z-score value corresponds to `O=C1O[C@H](c2ccccc2)[C@H](c2ccccc2)N2[C@H]1[C@@H](C(=O)N1CCN(c3ncccn3)CC1)[C@]1(C(=O)Nc3ccc(C#CC4(O)CCCCCC4)cc31)[C@H]2c1ccc(O)cc1` ?
output: 0.0903

input: Which measured composite z-score value corresponds to [N-]=[N+]=Nc1ccccc1C[C@@]1(C(=O)NCC(O)CO)N=C(c2ccc(OCCCO)cc2)O[C@@H]1c1ccccc1N=[N+]=[N-] (stereo not given in full) ?
output: -0.281

input: Which measured composite z-score value corresponds to CC1CC/C=C\[C@H]2OC34C=CCN(C(C)C)C(=O)[C@H]3N(C(C)CO)C(=O)[C@@H]4C2C(=O)O1 (stereo not given in full) ?
output: 0.0043

input: Which measured composite z-score value corresponds to `COc1ccc(C(=O)Nc2ccc(CN3C(=O)[C@]4(O[C@H](CC(=O)N(CCO)Cc5ccccc5)[C@@H]([Si](C)(C)c5ccc(OC)cc5)[C@@H]4C)c4ccccc43)cc2)cc1` ?
output: -0.142

input: Which measured composite z-score value corresponds to `CCCCC(=C=CC[C@H](O)c1ccccc1OCCO)CCO` ?
output: -0.245

input: Which measured composite z-score value corresponds to `C=C(C(=O)CC[C@H](OC(=O)c1ccccc1-c1ccccc1C(=O)O)c1ccc(OCCO)cc1)C(C)C` ?
output: 0.235

input: Which measured composite z-score value corresponds to `C=CC[C@H](OC(=O)Nc1ccc(SC)cc1)c1ccc(O)c(F)c1` ?
output: 0.0226

input: Which measured composite z-score value corresponds to `C=C(COC)C(=O)CC[C@@H](OC(=O)c1ccccc1-c1ccccc1C(=O)O)c1ccccc1OCCO` ?
output: -0.103

input: Which measured composite z-score value corresponds to `COC(=O)[C@@]1(Cc2ccc(F)cc2)[C@H]2c3cc(C(=O)N(C)C)n(Cc4ccc(C(F)(F)F)nc4)c3C[C@H]2CN1C(=O)c1ccccc1` ?
output: 0.589

input: Which measured composite z-score value corresponds to `C=C[C@@H](CO)NS(=O)(=O)c1ccc(Br)cc1` ?
output: -0.239

input: Which measured composite z-score value corresponds to `COC(=O)[C@@]1(Cc2ccc(F)cc2)[C@H]2c3cc(C(=O)N4CCCC4)n(Cc4ccc(C(F)(F)F)nc4)c3C[C@H]2CN1C(=O)c1ccccc1` ?
output: 0.93

input: Which measured composite z-score value corresponds to CCCC1(C(=O)OC)C=C2C(=C(C(C)C)C(=O)C2C)CN1 (stereo not given) ?
output: 0.062

input: Which measured composite z-score value corresponds to `COC(=O)[C@@]1(Cc2ccc(F)cc2)[C@@H]2C(=CC(=O)[C@H]2CC(=O)C(=O)N2CCCC2)CN1C(=O)c1ccccc1` ?
output: 1.45

input: Which measured composite z-score value corresponds to COc1cc2c(cc1O)C(C)N(Cc1sc3ccccc3c1Cl)CC2 (stereo not given) ?
output: -0.145

====

Assay method text: adipocyte viability effects, profiling panel, cell-based, 3T3-L1 adipocytes, calcein-AM fluorescence, 48 h, basal (AID 1163); also: test concentration not given here
Cond: 3T3-L1 adipocytes viability, higher = more signal
So basically, if z-score comes in under 1 it's 1, and if it's 1 or more it's 0.

input: Does `COc1ccc([Si](C)(C)[C@@H]2[C@@H](CC(=O)N(CCO)Cc3ccccc3)O[C@]3(C(=O)N(Cc4cccc(I)c4)c4ccccc43)[C@H]2C)cc1` have z-score strictly under 1?
output: 0

input: Does `O=C(CS)NCCCCCCNC(=O)[C@H]1C[C@H]2C(=O)NCC(=O)N2[C@H]1c1cccc(OCCO)c1` have z-score strictly under 1?
output: 0

input: Does `COCCOC(=O)N1C(=O)[C@@]2(c3cc(C#CC4(O)CCCCCC4)ccc31)[C@H](C(N)=O)[C@H]1C(=O)O[C@H](c3ccccc3)[C@H](c3ccccc3)N1[C@@H]2c1ccc(OCCO)cc1` have z-score strictly under 1?
output: 1

input: Does CS(=O)(=O)CCOC(=O)C1=CC(CCCO)=CC(C2CC2)N(Cc2sc3ccccc3c2Cl)C=C1C(=O)OCCS(C)(=O)=O (configuration not stated) have z-score strictly under 1?
output: 1

input: Does CN1C(=O)C2C=CC(C(O)c3ccc([N+](=O)[O-])cc3)N(Nc3ccccc3)C2C1=O (configuration not stated) have z-score strictly under 1?
output: 1

input: Does `Cc1c(NC(=O)/C(C#N)=C/C=C/c2ccc([N+](=O)[O-])cc2)c(=O)n(-c2ccccc2)n1C` have z-score strictly under 1?
output: 1

input: Does COc1cc(CO)cc(I)c1O[C@H]1C=C(C(=O)NCCO)C[C@@H](N(CCN2CCOCC2)C(=O)C2CCCO2)[C@@H]1O (some centres not stated) have z-score strictly under 1?
output: 1

====

Assay method text: small-molecule microarray binders of probe aShh, primary screen, biochemical, biotinylated probe, 635/667 nm fluorescence (AID 1114);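 also: probe is biotin-labelled aShh protein from a stem cell growth factor screen; measures binding of labelled protein to compounds printed on the slide; score merges feature fluorescence at 667 nm with signal-to-noise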
Cond: higher = more signal
For each entry below, report its composite z-score value.
Returns: the value as a bare number; no unit string appended.

input: Which measured composite z-score value corresponds to `[N-]=[N+]=NCc1ccccc1[C@H]1OC(c2ccc(OCCCO)cc2)=N[C@@]1(CCS(=O)(=O)c1ccccc1)C(=O)O` ?
output: -0.156

input: Which measured composite z-score value corresponds to `CCCC=C(CCC)[C@@H](NC(=O)c1ccc(C(=O)OC)cc1)c1ccc(C(=O)OC)cc1` ?
output: 1.45

input: Which measured composite z-score value corresponds to `COC(=O)[C@H]1N=C(c2ccc(OCCCO)cc2)O[C@H]1c1ccccc1N=[N+]=[N-]` ?
output: 0.468

input: Which measured composite z-score value corresponds to `COCCOC(=O)N1C(=O)[C@@]2(c3cc(C#CCNC(N)=O)ccc31)[C@H](C(N)=O)[C@H]1C(=O)O[C@H](c3ccccc3)[C@H](c3ccccc3)N1[C@@H]2c1ccc(O)cc1` ?
output: 0.288
